Tgt: T1, PUF4 RNA-binding domain (Saccharomyces cerevisiae, UniProt P25339 537-888)
T1 sequence: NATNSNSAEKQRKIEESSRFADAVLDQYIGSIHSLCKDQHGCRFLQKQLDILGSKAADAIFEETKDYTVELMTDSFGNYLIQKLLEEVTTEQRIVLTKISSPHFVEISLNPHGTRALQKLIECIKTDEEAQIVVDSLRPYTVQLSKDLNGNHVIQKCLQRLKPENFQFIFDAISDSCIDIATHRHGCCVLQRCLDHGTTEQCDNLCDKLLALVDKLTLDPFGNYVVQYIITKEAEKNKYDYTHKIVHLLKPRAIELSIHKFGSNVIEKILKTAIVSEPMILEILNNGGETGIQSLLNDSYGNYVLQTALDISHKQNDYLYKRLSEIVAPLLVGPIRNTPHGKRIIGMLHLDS
Run description: Mg; RNA-MaP; 20 mM Na-HEPES pH 7.4, 30 mM KOAc, 0.75 mM MgCl2, 0.1% Tween-20, 5% glycerol, 0.1 mg/mL BSA, 2 mM DTT; 25 C; 0.0125-409.6 nM protein
Stated conditions: tags: N-His6-TEV cleaved; C-SNAP kept, Cy3B-labelled; label: tethered on chip by stalled RNA polymerase
pKd: −log10 of the molar value.
Reported pKd values are given for each entry in this list.
Outcome measure: pKd

>  <Binder>
UCUCUUAGACACUAUAUCUCUCUU (ssRNA) [Id_ii_S1_P3E.4_K3.3_C3.2_[C-2A]_[T-1G]_H3.3_A3.1_F3.1_T3.2_[A10C]]

>  <Result>
< 5.64

$$$$
>  <Binder>
Id_ii_S4_P3E.4_K3.3_C3.2_[C-2A]_[T-1C]_H3.3_A3.1_F3.1_T3.2_[T9G]_[A10C] (ssRNA) RNA: UUUGACAACUGAUCGUUCUUUCUACACACUAUAGCUUCUUUCUCGAUCAGUUGUCUUU

>  <Result>
< 5.64

$$$$
>  <Binder>
UCUCUUCGACACUUAUUAUUUCUCUU (ssRNA) [Id_ii_S1_P5E.4_K5.3_C5.2_[T-1G]_H5.3_A5.1_F5.1_T5.2_[A12T]]

>  <Result>
< 5.64

$$$$
